B1: NELF-E aptamer (parent)
chain: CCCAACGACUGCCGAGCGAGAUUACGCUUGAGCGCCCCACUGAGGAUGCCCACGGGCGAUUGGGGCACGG

- Variants of: B1
- protocol description: HiTS-RAP
- conditions used: with NELF-E (Drosophila)
Could you mark each record Satisfied if its Kd falls strictly under 10 nM, and Not satisfied if it equals or exceeds it?

Some solved entries appear below for comparison.
INSERT INTO measurements (mutation_string, discrete_label) VALUES
  ('A19G A67G', 'Satisfied'),
  ('G7A A8G', 'Satisfied'),
  ('A39U U41A', 'Not satisfied'),
  ('U41G A43G', 'Satisfied');

Q: Consider C9G G65U . Does its Kd lie strictly below 10 nM?
Ans: Satisfied

Q: Here's an entry: A4G U23A . Is its Kd below 10 nM?
Ans: Satisfied

Q: Strictly below 10 nM in Kd? A5G C6G
Ans: Satisfied

Q: # TODO verify Kd < 10 nM strictly for this variant: G14C
Ans: Satisfied

These data points were gathered from the RNAGym collection of RNA variant scans (doi:10.1038/nmeth.2970).
